test system: OVCAR-5 ovarian; test: NCI-60 one-dose screen, 48 h (100 = growth as untreated, 0 = no growth, -100 = all killed); conditions: 10 µM
Compounds without any hit were thinned out: in the full panel of roughly 83,000, 20% have a hit.
MEASURED_PROPERTY: growth (%)
Numbers only; they are read as %.

What does the data say about its growth? Entry: Cc1nc(N)sc1Sc1nc2ccc(Cl)cc2c(=O)n1-c1ccc(Oc2ccccc2)cc1 87.9

Try this molecule too: Nc1nc2c(nnn2C2CC(O)C(CO)O2)c(=O)[nH]1 (stereo not drawn) 87.8

Thanks! And C#C[C@]1(O)CC[C@H]2[C@@H]3CC[C@H]4CC(F)(F)CC[C@]4(C)[C@H]3CC[C@@]21C ? 88.5

Also, O=c1c2cccc3c(Nc4ccc(Br)cn4)ccc(c32)c2nc3ccccc3n12 please. 90.7

What do we get for CN(C)c1ccc2c(c1)OC(N)=C(C#N)C2c1ccc2c(c1)CCO2 (stereo not drawn) ? 57.2

Proceed to Nc1ccc(C2=CC(c3ccc(Cl)cc3)N3C=CSC3=N2)cc1 (stereo not drawn) -66.1

Param item: COc1ccc(-c2nsc3c2NC(=O)CC3c2ccc(Cl)cc2)cc1 (stereo not drawn) 100

Again, but for Nc1ncc(-c2ccc(C(F)(F)F)cc2)c(NC2CCCCCC2)n1 53

###

tested on: NCI/ADR-RES ovarian; experiment: NCI-60 one-dose screen, 48 h (100 = growth as untreated, 0 = no growth, -100 = all killed); conditions: 10 µM
About 83,000 compounds went through this panel and 20% of them were active in at least one assay; those are over-represented in the sample as a whole.
For each of the compounds below, state its growth.
Number only, in %; omit the unit.

I have this compound here, CCOC(=O)C1=C(Nc2ccc(OC)cc2)C(N)=NC1=N , and I need its recorded growth. 28.4

Request: Cc1cc(C)c2nc(C)c(C)[n+]([O-])c2c1 104

Record: CCC(OC(=O)CC(C)C)c1ccccc1 (stereo not drawn) 98.8

Lookup COc1ccc(-c2nc(SCC(=O)c3ccc(Br)cc3)[nH]c(=O)c2C#N)cc1 110

Also need CNC(=O)c1cc(Oc2ccc(NC(=O)Nc3ccc(Cl)c(OC4CCCCC4)c3)c(F)c2)ccn1 , thanks. 47.6

Queued: O=C(O)CN1C(=O)C=CC1=O 111

Likewise for COc1ccc(-c2csc(-c3cc(Cl)cc(Cl)c3Cl)n2)cc1 ? 97.1

Entry Nc1nc2c(nnn2C2CC(O)C(CO)O2)c(=O)[nH]1 (stereo not drawn) please 30.2

Here is the next compound: COC(=O)CCCCCCCCC(C)c1ccc(C(C)=O)cc1 (stereo not drawn) 103

Would you mind doing COc1cc(CSc2nc3ccc(C)cc3c(=O)n2-c2ccccc2)cc(OC)c1OC as well? 17.8

Do the same for Cc1nn2c(/C=C3/C(=O)Nc4ccc(Cl)cc43)c(-c3ccccc3)nc2s1 please 38.3

Then N#CN1CC[C@H](C(=O)Nc2ncc(-c3ccccc3)s2)C1 ? 4.61

What do you get for COc1ccc(-c2csc(NC(=O)CO[N+](=O)[O-])n2)cc1 ? 99.6

# iterate: N=C(N)c1ccc(-c2ccc(-c3ccccc3)s2)cc1F -50.8

Input CC(C)C(C)C(N)C(=O)O (stereo not drawn) 107

What about CC(C)c1[nH]nc2c(NCc3ccc(-c4ccccn4)cc3)nc(SCCN(C)C)nc12 ? 7.1

Try Clc1cc(Cl)c(Cl)c(-c2nc(-c3cccnc3)cs2)c1 next. 85.1

Now the same for CCCCC(=O)N(c1ccc(Nc2c3ccccc3nc3cc([N+](=O)[O-])ccc23)cc1)S(C)(=O)=O 101

###

Test system: KM12 colon
Experiment: NCI-60 one-dose screen, 48 h
Settings: 10 µM
Procedure: Growth inhibition of the KM12 human tumor cell line is measured as a screen for anti-cancer activity. Cells are grown in 96 well plates and exposed to the test compound for 48 hours. Compounds are tested at a single concentration, which is 10^-5 M for most compounds. The reported endpoint is percent growth (GI% or GIPRCNT), where numbers from 0 - 100% represent growth inhibition, and numbers from -100% - 0 represent cell death. For example, a value of 40 represents 60% growth inhibition. […]
This is part of a sample that, as a whole, favours compounds with a hit. Of some 83,000 tested, about 20% had one in any assay. The source made the active and inactive calls. How the source made its calls: active means growth percent below 10; inactive means the rest.
Mark one answer only. Choices: label 1 (active), label 0 (inactive)

I'd appreciate the recorded outcome for COc1ccc(-c2[nH]ncc2-c2cc(OC)c(OC)c(OC)c2)cc1 from this test. label 1

Same lookup for COc1ccc(COC(=O)CC(C)C)cc1 , please. label 0

Next compound up: COc1cc(/C=C/C(=O)c2cc(-c3ccc(F)cc3)ccc2O)cc(OC)c1OC label 0

Would you mind doing CCOC(=O)C(CCC1=NC(C)(C)CC(C)O1)C(=O)OCC (stereo not given) as well? label 0

Please do the same for O=C(Nc1ccc(OS(=O)(=O)Cc2ccccc2)cc1)C12CC3CC(CC(C3)C1)C2 as well. label 0

###

tested on: HCT-15 colon; assay: NCI-60 one-dose screen, 48 h; conditions: 10 µM
This is part of a sample that, as a whole, favours compounds with a hit. Of some 83,000 tested, about 20% had one in any assay. The source made the active and inactive calls. Rule for the calls: active = growth percent below 10; inactive = the rest.
In this exercise, the only acceptable responses are true = active, false = inactive

# lookup: test call for COc1ccc2nc(NC(=O)Nc3c(F)cccc3F)sc2c1 false

Next entry: Cc1ccc(/C=C2\CN(Cc3cn(CCNc4ccnc5cc(Cl)ccc45)nn3)C/C(=C\c3ccc(C)cc3)C2=O)cc1 true

And what about the compound COc1cc(OC)cc(-c2n/c(=C\c3c(O)[nH]c4ccc(OC)cc34)cc3c2=Nc2ccccc2-3)c1 ? false

Then this compound: C=CCOc1ccc2c(c1)CC=C1[C@@H]2CC[C@]2(C)C(=O)/C(=N/O)C[C@@H]12 false

Quick one: Oc1[nH]c2ccccc2c1/C=c1/cc2c(c(-c3ccc(C(F)(F)F)cc3)n1)=Nc1ccccc1-2 false

Query CCCCCCCCCCCCCCCCn1cc[n+](C)c1 next true

###

tested on: SW-620 colon; test: NCI-60 one-dose screen, 48 h (100 = growth as untreated, 0 = no growth, -100 = all killed); details: 10 µM
The panel holds about 83,000 compounds, 20% with a hit somewhere; the sample as a whole holds those more often.
MEASURED_PROPERTY: growth (%)
Give a bare numeral; the unit % is implied.

Any idea what its growth is? The compound is CCC1(C)OC(=O)NC1=O (configuration not stated) 110

Further, for CCCc1c(CC)c(=N)c2ccccc2n1C ? 57.8

Lookup N=C(N)c1ccc(-c2ccc(-c3ccccc3)s2)cc1F -85.4

Also check O=S(=O)(NCl)c1ccccc1 107

Another: COc1ccc(S(=O)(=O)Nc2ccc(OCc3nnc(-c4ccc(Cl)cc4)o3)c(F)c2)cc1 84.5

And for COc1ccc(C(=O)c2sc3nc(-c4cccs4)ccc3c2N)cc1OC ? 45.4

Now this one: CCOC(=O)c1c(O)c2cc(-c3ccccc3)nc(OCC)c2c(=O)n1C 104

Try the compound Cc1ccc(C)c2c1sc1nc3n[nH]c(N)c3c(=N)n12 107

Same thing, different compound: CCCCCCCCCCCC(=O)NCCCN(C)C 102

Also c1ccc(COCC[P+](c2ccccc2)(c2ccccc2)c2ccccc2)cc1 ? 14

Param item: O=C(OCC1OC(n2cc(C(F)(F)F)c(=O)[nH]c2=O)CC1OC(=O)c1ccc([N+](=O)[O-])cc1)c1ccc([N+](=O)[O-])cc1 (configuration not stated) 65.6

Same read-out for Cc1ccc(/C(CS(=O)(=O)c2ccc(C)cc2)=N\O)cc1 ? 106

Item: Brc1ccc(-c2cn3ccnc3c(-c3ccc(Br)cc3)n2)cc1 25.4

Now consider COc1cc(-c2c(C#N)c(N)n3c(nc4ccccc43)c2C#N)cc(Br)c1OC and answer again. 41.4

And then COc1ccc(-c2ccc(-c3ccc(C(=N)N)c(F)c3)s2)cc1 , what is it? -91

Same question, Cc1ccc(C(=O)O)c(N)c1C this time 104

Input CN(C1c2ccccc2Oc2ccccc21)S(=O)(=O)c1cc(Cl)ccc1Cl 30.3

How about COc1cc(-c2n/c(=C\c3c(O)[nH]c4ccccc34)cc3c2=Nc2ccccc2-3)cc(OC)c1OC ? 33.4

Continue with O=[N+]([O-])c1cc2ncccc2c2ncccc12 85.4

Similarly, CCN(CC)CC(O)CNc1ccnc2cc(Cl)c(Cl)cc12 (configuration not stated) ? 97.3

// query: O=C/C=C/c1ccc([N+](=O)[O-])cc1Cl 90

Further, for CCOC(=O)c1ccc(N(C=O)CCC(=O)CCl)cc1 ? 7.93

For CC(=O)c1c(O)cc2c3c1OC(C)(C)C1CCC(C)(CC31)O2 (configuration not stated) then? 107

One more compound: COc1ccc(-c2nnc(COc3ccc(NC(=O)Nc4cccc(C(F)(F)F)c4)cc3F)o2)cc1 54.3

Repeat for the following compound: COc1ccc(-c2cc(=O)n(-c3nc4ccccc4[nH]3)[nH]2)cc1OC 77.8

Param item: N#CCC1CCCC1 104

Next compound up: COc1cc(C2c3cc4c(cc3C(O)C(CO)C2CO)OCO4)cc(OC)c1OC (configuration not stated) 19.6

Okay, and O=C(COc1ccc(-c2nc3ccccc3[nH]2)cc1)N=Nc1c(O)[nH]c2ccccc12 ? 85.6

Note, next up: S=C(Cc1ccc(-c2ccccc2)cc1)N1CCOCC1 103

CS(=O)(=O)Nc1ccc(OCc2nnc(-c3ccc(Cl)cc3)o2)c(F)c1 , same question. 108

Likewise for O=C(O)CCCN1C(=O)NC2(C1=O)c1ccccc1-c1ccccc12 ? 104

How about this compound: CCCCCCN=C(N)CCCCCCCCCCC(N)=NCCCCCC 22.4
